assay: physchem; settings: pH 2
The recorded pKa of each item maps onto one of these classes: band A: < 8; band B: ≥ 8 and < 9; band C: ≥ 9

Reference set (10 entries):
INSERT INTO results (compound, label_value) VALUES
  ('c1nc[nH]n1 [1,2,4-TRIAZOLE]', 'band C'),
  ('Fc1cccc(-c2c[nH]nn2)c1', 'band B'),
  ('Clc1ccc(-c2c[nH]nn2)cc1', 'band B'),
  ('c1ccc(-c2cnn[nH]2)cc1', 'band B'),
  ('c1ccc(-c2c[nH]cn2)cc1', 'band C'),
  ('c1c[nH]cn1 [IMIDAZOLE]', 'band C'),
  ('Clc1cccc(-c2c[nH]nn2)c1', 'band B'),
  ('c1ccc(-c2nc[nH]n2)cc1', 'band C'),
  ('Fc1cc(-c2c[nH]nn2)ccn1', 'band A'),
  ('Clc1cc(-c2c[nH]nn2)ccn1', 'band A');

Q: Dear colleague, I would appreciate it if you could identify the bin for c1nnn[nH]1 [TETRAZOLE] and reply at your convenience.
A: band A

Q: Dear colleague, I would appreciate it if you could identify the bin for `c1ccc(-c2nnn[nH]2)cc1` and reply at your convenience.
A: band A

Q: Dear colleague, I would appreciate it if you could identify the bin for `Clc1ccccc1-c1c[nH]nn1` and reply at your convenience.
A: band B

---

Listed here: items and their measured pIC50.
molecular target: Indoleamine 2,3-dioxygenase 1 (Homo sapiens, UniProt P14902); experiment: Inhibition of human IDO1 transfected in mouse P815B clone-6 cells by HPLC analysis; assay type: cell-based
Sequence (P14902 whole entry): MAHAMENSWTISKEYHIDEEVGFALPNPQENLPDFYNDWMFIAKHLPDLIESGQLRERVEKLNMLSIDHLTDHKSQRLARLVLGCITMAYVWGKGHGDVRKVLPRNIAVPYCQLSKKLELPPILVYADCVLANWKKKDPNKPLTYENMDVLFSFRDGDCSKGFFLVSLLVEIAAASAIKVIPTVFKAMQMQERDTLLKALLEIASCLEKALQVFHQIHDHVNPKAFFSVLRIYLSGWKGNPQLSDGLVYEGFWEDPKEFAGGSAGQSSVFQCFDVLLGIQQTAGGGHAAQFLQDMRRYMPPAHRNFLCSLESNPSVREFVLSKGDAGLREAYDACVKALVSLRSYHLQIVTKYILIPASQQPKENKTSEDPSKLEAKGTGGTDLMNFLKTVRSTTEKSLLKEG
Lab note: report pIC50 as minus log10 of the concentration in molar units, number only.

INSERT INTO assay_data (molecular_string, outcome_measure, observed_value) VALUES
  ('FC(F)(F)c1cc(-c2c[nH]nn2)ccn1', 'pIC50', 4.25);

Next:
Just so you know, measured pIC50 for `Cc1ccc(Cl)cc1-c1c[nH]nn1` came out at 4.85

---

molecular target: Indoleamine 2,3-dioxygenase 1 (Homo sapiens, UniProt P14902); assay: Inhibition of human recombinant N-terminal His-tagged IDO1 (Ala2 to Gly403) overexpressed in Escherichia coli BL21 at pH 6.5 after 60 mins by HPLC analysis
pIC50: −log10 of the molar value.
The recorded pIC50 of each item maps onto one of these classes: lo = under 4, med = from 4 up to 5, hi = 5 and over

Reference set (8 entries):
INSERT INTO measurements (molecular_string, label_value) VALUES
  ('Brc1cc(-c2c[nH]nn2)ccn1', 'hi'),
  ('Clc1cccc(-c2c[nH]nn2)c1', 'hi'),
  ('N#Cc1cccc(-c2c[nH]nn2)c1', 'hi'),
  ('Cc1cccc(-c2c[nH]nn2)c1', 'med'),
  ('CCc1ccccc1-c1c[nH]nn1', 'lo'),
  ('Oc1ccccc1-c1c[nH]nn1', 'med'),
  ('Fc1cccc(-c2c[nH]nn2)c1', 'med'),
  ('Nc1cccc(-c2c[nH]nn2)c1', 'lo');

Q: Dear colleague, I would appreciate it if you could identify the bin for `c1cc(-c2c[nH]cn2)ccn1` and reply at your convenience.
A: lo

Q: Dear colleague, I would appreciate it if you could identify the bin for `Cc1ccc(-c2c[nH]nn2)cc1` and reply at your convenience.
A: lo

Q: Dear colleague, I would appreciate it if you could identify the bin for `Cc1c(Cl)cccc1-c1c[nH]nn1` and reply at your convenience.
A: med

Q: Dear colleague, I would appreciate it if you could identify the bin for `Cc1ccc(Cl)cc1-c1c[nH]nn1` and reply at your convenience.
A: hi

Q: Dear colleague, I would appreciate it if you could identify the bin for `Brc1ccccc1-c1c[nH]nn1` and reply at your convenience.
A: hi

---

biological target: Indoleamine 2,3-dioxygenase 1 (Homo sapiens, UniProt P14902); assay: Inhibition of human IDO1 transfected in mouse P815B clone-6 cells by HPLC analysis; assay type: cell-based
Listed here: items and their measured IC50.
Write the number in µM without appending the unit.

Examples from the recorded data:
INSERT INTO results (molecular_string, observed_value) VALUES
  ('O=[N+]([O-])c1cccc(-c2c[nH]nn2)c1', 24),
  ('CCc1cccc(-c2c[nH]nn2)c1', 1.1),
  ('Cc1cccc(-c2c[nH]nn2)c1', 7);

Just so you know, measured IC50 for `Clc1ccc(Cl)c(-c2c[nH]nn2)c1` came out at 34

Just so you know, measured IC50 for `Brc1ccccc1-c1c[nH]nn1` came out at 2.6

Just so you know, measured IC50 for `Clc1cc(-c2c[nH]nn2)ccn1` came out at 3.5

Just so you know, measured IC50 for `Brc1cc(-c2c[nH]nn2)ccn1` came out at 2.9

---

molecular target: Indoleamine 2,3-dioxygenase 1 (Homo sapiens, UniProt P14902); settings: at 1 mM
Sequence (P14902 whole entry, looked up): as the sequence (P14902 whole entry) above
Activity calls are given as the source filed them. No cut-off for these calls is given here.
OUTCOME MEASURE: inhibition

INSERT INTO assay_data (molecular_string, observed_value) VALUES
  ('Cc1cccc(-c2cnnn2-c2ccccc2)c1', 'inactive'),
  ('c1ccc(Cn2cc(-c3ccccc3)nn2)cc1', 'inactive'),
  ('O=C(O)CCc1ccccc1-c1c[nH]nn1', 'inactive'),
  ('Cn1nncc1-c1ccccc1', 'inactive'),
  ('Cn1cc(-c2cccc(Cl)c2)nn1', 'inactive');

I looked up `Cc1[nH]nnc1-c1ccccc1` and its inhibition for Indoleamine 2,3-dioxygenase 1 (Homo sapiens, UniProt P14902) was inactive

I looked up `CCn1ncc(-c2ccccc2)n1` and its inhibition for Indoleamine 2,3-dioxygenase 1 (Homo sapiens, UniProt P14902) was inactive

---

target: Tryptophan 2,3-dioxygenase (Homo sapiens, UniProt P48775); test: Inhibition of human TDO transfected in mouse P815B clone 19 cells by HPLC analysis
Sequence (P48775 whole entry): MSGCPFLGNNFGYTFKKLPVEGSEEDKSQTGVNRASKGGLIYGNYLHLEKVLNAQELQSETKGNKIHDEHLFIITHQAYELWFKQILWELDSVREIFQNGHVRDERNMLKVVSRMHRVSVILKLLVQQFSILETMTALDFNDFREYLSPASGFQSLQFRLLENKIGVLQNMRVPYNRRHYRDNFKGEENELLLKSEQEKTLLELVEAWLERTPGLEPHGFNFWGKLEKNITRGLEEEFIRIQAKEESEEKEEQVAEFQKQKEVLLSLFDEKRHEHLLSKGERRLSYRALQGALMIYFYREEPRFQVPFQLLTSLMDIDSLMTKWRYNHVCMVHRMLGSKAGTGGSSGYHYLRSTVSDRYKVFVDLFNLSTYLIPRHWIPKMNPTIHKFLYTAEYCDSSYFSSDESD
Listed here: items and their measured IC50.

Examples from the recorded data:
INSERT INTO assay_data (molecular_string, target_entity, observed_value) VALUES
  ('Fc1ccc(-c2c[nH]nn2)cc1', 'Tryptophan 2,3-dioxygenase (Homo sapiens, UniProt P48775)', '> 100 µM'),
  ('Fc1cccc(-c2c[nH]nn2)c1', 'Tryptophan 2,3-dioxygenase (Homo sapiens, UniProt P48775)', '> 100 µM'),
  ('O=[N+]([O-])c1cccc(-c2c[nH]nn2)c1', 'Tryptophan 2,3-dioxygenase (Homo sapiens, UniProt P48775)', '> 100 µM'),
  ('FC(F)(F)c1cccc(-c2c[nH]nn2)c1', 'Tryptophan 2,3-dioxygenase (Homo sapiens, UniProt P48775)', '> 100 µM');

Just so you know, measured IC50 for `CCc1ccccc1-c1c[nH]nn1` came out at > 100 µM

Just so you know, measured IC50 for `Clc1cc(-c2c[nH]nn2)ccn1` came out at > 100 µM

Just so you know, measured IC50 for `Clc1cccc(-c2c[nH]nn2)c1` came out at > 100 µM

Just so you know, measured IC50 for `Fc1ccccc1-c1c[nH]nn1` came out at > 100 µM

---

target: Indoleamine 2,3-dioxygenase 1 (Homo sapiens, UniProt P14902); experiment: Inhibition of human IDO1 transfected in mouse P815B clone-6 cells by HPLC analysis; assay type: cell-based
Listed here: items and their measured pIC50.
Lab note: report pIC50 as minus log10 of the concentration in molar units, number only.

INSERT INTO assay_data (molecular_string, outcome_measure, observed_value) VALUES
  ('Clc1cccc(-c2c[nH]nn2)c1', 'pIC50', 6.21),
  ('N#Cc1cccc(-c2c[nH]nn2)c1', 'pIC50', 5.54);

Just so you know, measured pIC50 for `Oc1ccccc1-c1c[nH]nn1` came out at 5.77

Just so you know, measured pIC50 for `Fc1ccccc1-c1c[nH]nn1` came out at 4.15

Just so you know, measured pIC50 for `Fc1cc(-c2c[nH]nn2)ccn1` came out at 5.15

Just so you know, measured pIC50 for `Brc1cccc(-c2c[nH]nn2)c1` came out at 6.03

Just so you know, measured pIC50 for `FC(F)(F)c1cccc(-c2c[nH]nn2)c1` came out at 5.05

---

molecular target: UniProt:P48776; test: Inhibition of mouse TDO in P815 clone 12 cells by HPLC analysis
Sequence (P48776 whole entry): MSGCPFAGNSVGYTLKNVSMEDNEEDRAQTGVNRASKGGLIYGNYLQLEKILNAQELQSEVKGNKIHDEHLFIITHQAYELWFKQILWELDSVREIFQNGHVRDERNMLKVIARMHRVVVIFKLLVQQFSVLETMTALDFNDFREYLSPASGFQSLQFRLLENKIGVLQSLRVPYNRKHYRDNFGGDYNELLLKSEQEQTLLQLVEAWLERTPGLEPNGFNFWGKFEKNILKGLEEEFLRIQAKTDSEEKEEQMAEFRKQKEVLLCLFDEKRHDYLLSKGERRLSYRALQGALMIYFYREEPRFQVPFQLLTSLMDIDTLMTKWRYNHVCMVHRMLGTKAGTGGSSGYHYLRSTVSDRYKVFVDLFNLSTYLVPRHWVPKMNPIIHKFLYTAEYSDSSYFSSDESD
Listed here: items and their measured IC50.

Examples from the recorded data:
INSERT INTO results (molecular_string, target_entity, observed_value) VALUES
  ('FC(F)(F)c1ccccc1-c1c[nH]nn1', 'UniProt:P48776', '> 100 µM'),
  ('N#Cc1cccc(-c2c[nH]nn2)c1', 'UniProt:P48776', '> 100 µM'),
  ('Brc1cc(-c2c[nH]nn2)ccn1', 'UniProt:P48776', '> 100 µM'),
  ('Cc1ccc(Cl)cc1-c1c[nH]nn1', 'UniProt:P48776', '> 100 µM'),
  ('Fc1cccc(-c2c[nH]nn2)c1', 'UniProt:P48776', '> 100 µM'),
  ('Clc1cccc(-c2c[nH]nn2)c1', 'UniProt:P48776', '> 100 µM'),
  ('FC(F)(F)c1cc(-c2c[nH]nn2)ccn1', 'UniProt:P48776', '> 100 µM'),
  ('Oc1ccc(Cl)cc1-c1c[nH]nn1', 'UniProt:P48776', '> 100 µM'),
  ('Clc1cccc(-c2c[nH]nn2)c1Cl', 'UniProt:P48776', '> 100 µM'),
  ('CCc1ccccc1-c1c[nH]nn1', 'UniProt:P48776', '> 100 µM');

Just so you know, measured IC50 for `Fc1ccc2c(/C=C/c3nnn[nH]3)c[nH]c2c1` came out at 17 µM

Just so you know, measured IC50 for `c1ccc(-c2cnn[nH]2)cc1` came out at > 100 µM

Just so you know, measured IC50 for `O=[N+]([O-])c1cccc(-c2c[nH]nn2)c1` came out at > 100 µM

Just so you know, measured IC50 for `CCc1cccc(-c2c[nH]nn2)c1` came out at > 100 µM
